# System: SR leukemia
# Protocol Notes: NCI tumour cell line growth inhibition, 48 h; in the data active means GI50 below about 0.43 µM; inactive means the rest
Give your call using only these classes: 1 = active, 0 = inactive

Recorded results for 3 molecules are shown here.
COc1cc2c3c(n(CCCN)c(=O)c2cc1OC)-c1cc2c(cc1/C3=C\CCN)OCO2 : 1
N#Cc1nc2c(S(=O)(=O)c3ccccc3)c(N)n(Cc3cccnc3)c2nc1C#N : 0
C=CC(=O)N1CCN(c2nc(=O)n(-c3c(C)ccnc3C(C)C)c3nc(-c4c(O)cccc4F)c(F)cc23)[C@@H](C)C1 : 0

Outcome? CC1=C2C[C@H]3[C@@H](CC[C@@H]4CC(NS(C)(=O)=O)CC[C@@]43C)[C@@H]2CC[C@@]2(C1)O[C@@H]1C[C@H](C)CN[C@H]1[C@H]2C (stereo not given in full) 0

Entry Cc1cc2nc3c4cc(N)ccc4n(CCN(C)C)c3nc2cc1C please 1

* * *

Listing: TGI of selected compounds
# Test system: TK-10 renal
# Protocol Notes: NCI tumour cell line growth inhibition, 48 h

CC(=O)[CH-]C(=O)c1ccccc1.CC(=O)[CH-]C(=O)c1ccccc1.CC(C)CCCC(C)[C@H]1CCC2[C@@H]3CC=C4C[C@@H]([O-])CC[C@]4(C)C3CC[C@@]21C.CC[O-].[Ti+4] (some centres undefined) : > 100 µM
Cc1cc2nc(CCC(=O)O)c(=O)[nH]c2cc1C : > 100 µM
CCOc1ccc(-c2nonc2NC(=O)c2cccc(C)c2)cc1OCC : 46.8 µM

Attention now turns to another entry.
Name the recorded TGI for O=C(c1ccco1)c1nc2cc(Cl)ccc2[n+]([O-])c1C(F)(F)F . > 100 µM

* * *

# Tested on: LOX IMVI melanoma
# Protocol Notes: NCI tumour cell line growth inhibition, 48 h
Property: TGI (µM)
# value in µM; strip the unit string

Consider the reported TGI for these compounds:
CC(=O)OC(C)C1C2=C(C(=O)CC1(C)O)C(=O)c1c(ccc(-c3ccc4c(c3O)C(=O)C3=C(C4=O)C(C(C)OC(C)=O)C(C)(O)CC3=O)c1O)C2=O (centres undefined) : 3.07
CN(CCCCN1CCCC1)CCCN(C)C(=O)Cc1ccc(Cl)c(Cl)c1 : 27.9

Name the recorded TGI for Nc1nc(N)c2c(n1)NC(=O)c1c(c3ccccc3n1Cc1ccc(Cl)cc1)C2 . 56.4

* * *

# Test system: 786-0 renal
# Protocol Notes: NCI tumour cell line growth inhibition, 48 h; in the data active means GI50 below about 0.43 µM; inactive means the rest
Give your call using only these classes: active, inactive

Recorded results for 2 compounds are shown here.
O=C1NC(O)C(c2c[nH]c3ccccc23)=C1c1c[nH]c2ccccc12 (stereo not given) : inactive
COc1cc2cc(Oc3ccc(NC(=O)Nc4cccc(C(F)(F)F)c4)cc3)c(C)nc2cc1OC : inactive

Outcome? CC1(C)N=C(N)N=C(N)N1c1ccc(OCCCCOc2ccc(S(=O)(=O)F)cc2)c(Cl)c1 active

Entry O=C1/C(=C/c2ccccc2)CN(C(=O)c2cccnc2)C/C1=C\c1ccccc1 please inactive

Entry O=C(Nc1cccc(Cl)c1)c1ccc(NC2=C(Cl)C(=O)N(Cc3ccccc3)C2=O)cc1 please inactive

* * *

# Tested on: M19-MEL melanoma
# Protocol Notes: NCI tumour cell line growth inhibition, 48 h
Property: TGI

Consider the reported TGI for these compounds:
N#C/C(=C/c1ccc[nH]1)P(=O)(O)O : > 100 µM
Cc1cc2nc(CCC(=O)O)c(=O)[nH]c2cc1C : > 100 µM
Oc1cc(O)c2c(-c3c(O)c(-c4ccc(O)c(O)c4)[o+]c4cc(O)cc(O)c34)c(O)c(-c3ccc(O)c(O)c3)[o+]c2c1 : > 100 µM
CCOc1ccccc1NC(=O)CC1SC(=Nc2ccc([N+](=O)[O-])cc2)NC1=O (stereo not given) : 64.4 µM

Name the recorded TGI for O=C(CC1(O)C(=O)Nc2c(Cl)ccc(Cl)c21)c1ccc2ccccc2c1 (stereo not given) . 7.82 µM
